Values were extracted from ChEMBL document CHEMBL3137667.

- SETTINGS: human;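 note: steatosis confirmed by histopathology, value is the count of indexed references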
Reported values of Hepatotoxicity (steatosis) for individual entries
Please give the numeric answer without any surrounding text.

Worked set:
> print(dat)
                                   compound  experimental.result
1  O=C1NCCN1CCN1CCC(c2cn(-c3ccc(F)cc3)c3ccc(Cl)cc23)CC1                    0
2  CC(CN1c2ccccc2Sc2ccccc21)N(C)C (centres undefined)                    0
3  CCCCCCCCCCCCCCCCOP(=O)([O-])OCC[N+](C)(C)C                    0
4  CC(NCCc1ccc(O)cc1)C(O)c1ccc(O)cc1 (centres undefined)                    0
5  CCOC(=O)[C@H](CCc1ccccc1)N[C@H]1CCc2ccccc2N(CC(=O)O)C1=O                    0

Exam item: Quickly give me recorded Hepatotoxicity (steatosis) for Cc1c(N(C)C)c(=O)n(-c2ccccc2)n1C
Marked response: 1

Exam item: Specify measured Hepatotoxicity (steatosis) for CN(C)CC/C=C1\c2ccccc2CSc2ccccc21 [DOTHIEPIN] .
Marked response: 1

Exam item: Determine its reported Hepatotoxicity (steatosis): O=c1[nH]c(=O)n([C@H]2C[C@H](O)[C@@H](CO)O2)cc1I
Marked response: 0

Exam item: Consider the compound Cc1c(C)c2ccc(OCCCN3CCN(Cc4ccc(Cl)cc4)CC3)cc2oc1=O and give its recorded Hepatotoxicity (steatosis).
Marked response: 0
